Exercise: for every item that follows, state its recorded Kd.
molecular target: T1, 人GPC-3-His(北京义翘神州生物) (human, UniProt P51654 25-559); experiment: affinity and kinetics of Table 2 (table not shown; method not named here, taken as BLI of Example 3.2)
T1 construct: Bought His-tagged protein, coupled to Ni-NTA sensors in the BLI assay; not shown: His tag
T1 sequence (P51654 25-559 limits assumed): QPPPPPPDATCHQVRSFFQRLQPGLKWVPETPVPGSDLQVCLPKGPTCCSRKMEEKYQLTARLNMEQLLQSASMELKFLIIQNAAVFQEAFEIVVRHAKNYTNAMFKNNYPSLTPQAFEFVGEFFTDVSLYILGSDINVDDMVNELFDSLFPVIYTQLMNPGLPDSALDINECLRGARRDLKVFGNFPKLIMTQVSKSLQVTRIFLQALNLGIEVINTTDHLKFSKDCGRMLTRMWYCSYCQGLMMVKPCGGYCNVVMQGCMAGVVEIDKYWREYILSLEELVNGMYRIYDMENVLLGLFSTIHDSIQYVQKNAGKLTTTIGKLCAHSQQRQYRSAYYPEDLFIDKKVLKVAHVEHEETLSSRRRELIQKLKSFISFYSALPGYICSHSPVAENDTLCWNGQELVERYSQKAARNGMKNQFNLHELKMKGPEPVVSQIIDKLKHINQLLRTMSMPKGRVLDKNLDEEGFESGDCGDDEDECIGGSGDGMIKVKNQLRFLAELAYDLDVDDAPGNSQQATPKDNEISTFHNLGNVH

Binder | Property Measured | Readout Value
人源化抗体AB13E5 (antibody, V domains shown, Humanized from GPC3#4 by CDR grafting) VH: QVQLVQSGAEVKKPGASVTLSCKASGYTFTDYEMHWVRQAPGQGLEWMGIIDPQTGNTSYAQKFQGRVTMTRDTSTSTVYMELSSLRSEGSAVYYCTRFYSLTYWGQGTLVTVSS VL: DVVMTQSPLSLPVTLGDQASISCRSSQSIVHSNGNTYLNWFQQRPGQSPRRLIYKVSNRDSGVPDRFSGSGSGTDFTLKISRVEAEDVGVYYCFQGSHFPYAFGGGTKVEIK | Kd | < 10 pM

API: the following record is the query input.
The binder listed as 人源化抗体AB13E2 (antibody, V domains shown, Humanized from GPC3#4 by CDR grafting) VH: QVQLVQSGAEVKKPGASVKVSCKASGYTFTDYEMHWVRQAPGQGLEWIGAIDPQTGNTSYAQKFQGRVTMTRDTSTSTVYMELSSLRSEDTAVYYCTRFYSLTYWGQGTLVTVSS VL: DVVMTQSPLSLPVTLGQPASISCRSSQSIVHSNGNTYLNWFQQRPGQSPKLLIYKVSNRDSGVPDRFSGSGSGTDFTLKISRVEAEDVGVYYCFQGSHFPYAFGGGTKLEIK shows Kd equal to < 10 pM
